- test.summary: Efflux ratio of apparent permeability from basolateral to apical side over apical to basolateral side in dog MDCK-MDR1 cells
- Type: ADME, cell-based, Canis lupus familiaris
quantity.measured: efflux ratio
Just the number, please.

So for `Cc1cccc(N(C)c2nccc(-c3cnn4ncccc34)n2)c1` , the logged efflux ratio turned out to be 0.96

* * *

- test.summary: Thermodynamic solubility of compound at pH 6.8
- Format: physicochemical
- test.parameters: buffer, read-out: Therm_solubility
quantity.measured: solubility thermodynamic

Record summary for `Cc1cccc(N(C)c2nccc(-c3cnn4ncccc34)n2)c1` : reported solubility thermodynamic = 10 µg/mL

* * *

- subject.of.test: UniProt Q13627
- test.summary: Inhibition of recombinant human N-terminal Hex-tagged DYRK1A (127 to 485 residues) expressed in Escherichia coli BL21 (DE3) incubated for 1.5 hrs by TR-FRET assay
quantity.measured: pIC50
// pIC50 here means minus log10 of the molar concentration (mol/L)

Recorded results for 6 molecules are shown here.
| molecule | quantity.measured | endpoint.result |
| --- | --- | --- |
| c1ccc(Nc2nccc(-c3cnn4ncccc34)n2)cc1 | pIC50 | 7.42 |
| COc1cccc(N(C)c2nccc(-c3cnn4ncccc34)n2)c1 | pIC50 | 7.01 |
| COc1cccc(Nc2nccc(-c3cnn4ncccc34)n2)c1 | pIC50 | 7.92 |
| Cc1cccc(Nc2nccc(-c3cnn4ncccc34)n2)c1 | pIC50 | 8.15 |
| Cc1cccc(N(C)c2nccc(-c3cnn4ncccc34)n2)c1 | pIC50 | 7.12 |
| COc1ccccc1Nc1nccc(-c2cnn3ncccc23)n1 | pIC50 | 6.86 |

# pIC50 (molecule: `Cc1ccccc1Nc1nccc(-c2cnn3ncccc23)n1` ) is 7.19

Lab note: measured pIC50 of `CN(c1ccccc1)c1nccc(-c2cnn3ncccc23)n1` was 6.73

Recorded result, N#Cc1cccc(Nc2nccc(-c3cnn4ncccc34)n2)c1 [GW778894X] , pIC50: 8.30

The molecule identified as `N#Cc1ccc(Nc2nccc(-c3cnn4ncccc34)n2)cc1` registered its pIC50 at 6.99
